Molecular target: Adenosine receptor A1 (Homo sapiens)
Sequence (P30542 whole entry): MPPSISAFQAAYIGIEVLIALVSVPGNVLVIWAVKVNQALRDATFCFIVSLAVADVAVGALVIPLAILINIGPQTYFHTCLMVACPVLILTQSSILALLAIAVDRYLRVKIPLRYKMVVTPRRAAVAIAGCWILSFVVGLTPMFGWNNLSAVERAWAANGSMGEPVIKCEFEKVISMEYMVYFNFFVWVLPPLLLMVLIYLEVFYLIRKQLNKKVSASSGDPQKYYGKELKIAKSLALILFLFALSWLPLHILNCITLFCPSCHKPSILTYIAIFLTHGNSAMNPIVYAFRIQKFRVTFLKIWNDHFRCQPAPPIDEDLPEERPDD
Experiment: Displacement of [3H]DPCPX from human adenosine A1 receptor expressed in CHO cells; range 81-127
Assay type: cell-based
Value Type: Ki (nM)
Report the figure in nM without appending any unit label.

*Q* So what does the record say about Ki for Cn1cc2c(nc(N)n3nc(-c4ccco4)nc23)n1 ?
*A* 101

* * *

Target: UniProtKB P0DMS8
Sequence (P0DMS8 whole entry): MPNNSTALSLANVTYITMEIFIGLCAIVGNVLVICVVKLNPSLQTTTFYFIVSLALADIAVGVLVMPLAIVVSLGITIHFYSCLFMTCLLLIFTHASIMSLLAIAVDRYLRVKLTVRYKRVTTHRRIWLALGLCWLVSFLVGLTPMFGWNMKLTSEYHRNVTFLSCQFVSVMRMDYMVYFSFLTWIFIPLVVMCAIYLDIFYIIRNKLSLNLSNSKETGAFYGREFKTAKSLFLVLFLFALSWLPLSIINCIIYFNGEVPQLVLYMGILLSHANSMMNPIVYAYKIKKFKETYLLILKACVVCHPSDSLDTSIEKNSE
Assay: biochemical
Value Type: pKi
When answering, recall that pKi equals minus log10 of the concentration in mol/L, and write that number alone.

*Q* Give UniProtKB P0DMS8 pKi for CCCCn1cc2c(nc(N)n3nc(-c4ccco4)nc23)n1
*A* 6.22
